- Test system: SNB-75 CNS
- assay: NCI-60 one-dose screen, 48 h
- experimentalContext: 10 µM
This is part of a sample that, as a whole, favours compounds with a hit. Of some 83,000 tested, about 20% had one in any assay. The source made the active and inactive calls. The calls were made as follows: active = growth percent below 10; inactive = the rest.
Classes used: 1 (active), -1 (inactive)

compound="C=C(C(=O)c1ccccc1)C(NC(C)(C)C)c1ccccc1 (centres undefined)" categorylabel=-1
compound=O=C(Nc1cccc(-n2cc(-c3ccncc3)c(-c3ccc(O)c(Cl)c3)n2)c1)Nc1ccc(Cl)c(Cl)c1 categorylabel=1
compound=CS(=O)(=O)Nc1ccc(Nc2c3ccccc3nc3cc([N+](=O)[O-])ccc23)cc1 categorylabel=-1
compound="COc1cc(NC(=O)c2sc3nc4c(cc3c2N)C(O)CCC4)cc(OC)c1 (centres undefined)" categorylabel=-1
compound="CCN(CC)CCC(CNc1c(C)cnc2cc(Cl)ccc12)c1ccc(Cl)cc1 (centres undefined)" categorylabel=-1
compound=COc1ccc(-c2nc3sc(-c4ccc(OC)cc4)c(-c4ccc(OC)cc4)n3c2/C=C/c2ccc(C(C)C)cc2)cc1 categorylabel=-1
compound=COc1ccc(-n2c(SCc3cc(OC)c(OC)c(OC)c3)nc3ccc(C)cc3c2=O)cc1 categorylabel=-1
compound=COc1cc(-c2cc(/C=C3\C(=O)Nc4ccccc43)[nH]n2)cc(OC)c1OC categorylabel=-1
compound=O=C(O)CN1C(=O)c2cccc3cccc(c23)C1=O categorylabel=-1
compound="COc1ccc(C2=NN(C(=O)c3ccc(S(C)(=O)=O)cc3)C(c3ccc(OC)c(OC)c3)C2)c(OC)c1 (centres undefined)" categorylabel=-1
compound="CCCCCCN1C(=O)C2=C(c3ccc(Cl)cc3)Nc3c(c(C)nn3-c3ccccc3)C2c2ccccc21 (centres undefined)" categorylabel=-1
compound=CCN(CCCCCCCCCCN1CC(=O)N(CCCCCCCCCCN(CC)Cc2ccccc2OC)CC1=O)Cc1ccccc1OC categorylabel=1
compound=NC1(C(=O)O)CSSC1 categorylabel=-1
compound=CCN(CC)CCNc1ccc(CO)c2oc3cc(Cl)ccc3c(=O)c12 categorylabel=-1
compound="Cc1cn(C2CCCCO2)c(=O)nc1NO (centres undefined)" categorylabel=-1
compound=COC(=O)C1=NNC(=S)N(c2cc(C)[nH]n2)C(=O)C1 categorylabel=-1
compound="O=C(CC(C(=O)c1ccccc1)N1CCOCC1)c1ccccc1 (centres undefined)" categorylabel=-1
compound="COc1ccc(N2C(=O)C3c4[nH]c5ccc(OCc6ccccc6)cc5c4C4CCC(C(C)C)CC4C3C2=O)cc1 (centres undefined)" categorylabel=-1
compound=Oc1[nH]c2ccc(Cl)cc2c1/C=c1/ccc2c(c1)N=C(c1cc(F)cc(F)c1)N=2 categorylabel=-1
compound=COc1ccc(/C=C2/CN(CCC#N)C/C(=C\c3ccc(OC)cc3)C2=O)cc1 categorylabel=-1
compound=COc1ccc(-c2nc(-c3nc4cc(Cl)c(Cl)cc4[nH]3)c3ccccn23)cc1 categorylabel=1
compound=COc1cc(-c2cc(/C=C/C(=O)c3ccc(N)cc3)[nH]n2)cc(OC)c1OC categorylabel=1
compound=O=[P@@]1(c2ccccc2)O[C@H](COCc2ccccc2)[C@@H](OCc2ccccc2)[C@H](OCc2ccccc2)[C@H]1O categorylabel=1
compound=COc1ccc(-c2nc3ccccn3c2-c2nnc(-c3cc(OC)c(OC)c(OC)c3)o2)cc1 categorylabel=-1
compound=FC(F)(F)c1ccc2nc(-c3nc(-c4ccccc4)n4ccccc34)[nH]c2c1 categorylabel=-1
compound=CSCCCNC(=O)c1ccc2c(c1)/C(=C/c1[nH]c(C)cc1C)C(=O)N2 categorylabel=1
compound=Cc1ccc(S(=O)(=O)OCCN(CCOS(=O)(=O)c2ccc(C)cc2)c2c[nH]c(=O)[nH]c2=O)cc1 categorylabel=-1
compound=COc1ccc(-c2nc3sccn3c2-c2nc3c([nH]2)C(=O)c2ccccc2C3=O)cc1 categorylabel=-1
compound=O=C1Nc2ccc(Cl)cc2/C1=C\c1c(-c2ccc(Cl)cc2)nc2sc(C3CC3)nn12 categorylabel=-1
compound=COc1ccc(-c2nn(-c3cccc(NC(=O)c4cccc(C(F)(F)F)c4)c3)cc2-c2ccncc2)cc1Cl categorylabel=1
compound=O=C(Nc1nc(-c2ccccc2Cl)cs1)c1cc(-c2ccc(Cl)cc2)nc2ccc(Cl)cc12 categorylabel=-1
compound=N=C(N)c1ccc(-c2ccc(-c3cccs3)s2)cc1 categorylabel=-1
compound=COc1ccc(-c2csc(NC(=O)CSc3nc(C)c(-c4ccccc4)n3Nc3ccccc3)n2)cc1 categorylabel=-1
compound=O=C(CNC(=O)OCc1ccccc1)NCC(=O)Oc1ccc([N+](=O)[O-])cc1 categorylabel=-1
compound="CC(C)=CCc1cc(O)cc2c1OC(C=C(C)C)C1=C2C(=O)C2=C(C1=O)S(=O)(=O)CCN2 (centres undefined)" categorylabel=-1
compound=CC1(C)N=C(N)N=C(N)N1c1ccc(CCc2ccccc2)c(Cl)c1 categorylabel=-1
compound=CC/C(=C(/c1ccc(OCCN(C)C)cc1)c1ccc(OC(=O)CCC(=O)c2c(C)[nH]c(/C=C3\N=C(c4ccc[nH]4)C=C3OC)c2C)cc1)c1ccccc1 categorylabel=-1
compound=CCN(CC)CCNC(=O)c1ccc(NC(C)=O)cc1 categorylabel=-1
compound=COC(=O)c1c(-c2ccccc2)csc1NC(=O)c1c(-c2ccccc2)noc1C categorylabel=-1

meta.source: PubChem BioAssay (NCI)
